Biological target: MAST1, Q9Y2H9
Sequence (Q9Y2H9 962-1065): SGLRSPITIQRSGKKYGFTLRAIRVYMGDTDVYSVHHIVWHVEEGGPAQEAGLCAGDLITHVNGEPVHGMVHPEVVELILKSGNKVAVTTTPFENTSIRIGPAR
Test: holdup assay
Parameters: key: below the threshold = too weak to quantify, mostly under pKd 3.1 to 4
Conditions: plain residues with an end cap or a label only (N-terminal biotin on a linker: ado-ado)
observed.property: pKd
Respond numerically, and do not add a unit to the figure.

LPPPESESKV [KCNJ9, Q92806]    4.29

Turning now to a further record.
Qu. Consider the binder shown here: YAEKRMLTEV [KCNA6, P17658] What is its recorded pKd?
Ans. 4.65
